B1: HDAC6 (parent)
chain: YVHHQALLDVKNIAHQNKFGEDMP

- Variants of: B1
- Method Notes: protein stability index of a GFP-peptide fusion (GPS, HEK-293T) (PSI 1-6); higher = more stable;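 further: lentivirally expressed fusions sorted by FACS into six bins by GFP to DsRed ratio, PSI derived from sequencing read proportions per bin multiplied by bin number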
- Assay Conditions: c terminus: a fixed tail appended
Measured protein stability index accompanies every entry in the list below.
Could you respond with only the numeric value?

Reference set (3 entries):
- Variant Description: "A6T"
  protein stability index: 1.97
- Variant Description: "V10F"
  protein stability index: 1.98
- Variant Description: "D9T"
  protein stability index: 1.95

Moving on to the next variant.
What measured protein stability index goes with F19N ?
2.05
